assay-explanation: recombinant UMI read abundance after kanamycin selection (control-corrected) (log10(CPM+1)); higher = more efficient recombination; extreme values may be limits of the assay; sequences stand for … in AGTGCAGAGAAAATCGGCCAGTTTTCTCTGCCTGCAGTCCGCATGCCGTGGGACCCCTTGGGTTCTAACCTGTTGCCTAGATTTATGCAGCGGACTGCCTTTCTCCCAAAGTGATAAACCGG…AGGTTGGTTTCACT; site = the 11-nt donor;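 also: IS621 bridge recombinase in Escherichia coli cells against a fixed T5 target plasmid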
Each record here notes measured recombinant UMI read abundance (log10).
The reply should be a number, written without any unit.

sequence-input	recombinant UMI read abundance (log10)
TGATCATCATGGACCGGTTTTCCCGGTAATCCGTATTTGGT (site CGATCATCTAG)	0
ACAGAATCATGGACCGGTTTTCCCGGTAATCCGTATTTGCA (site ACAGAATCTTG)	2.9
GCCACGCCATGGACCGGTTTTCCCGGTAATCCGTATTTGTA (site GCCACGCCTAA)	0.0376
CGTGGAACATGGACCGGTTTTCCCGGTAATCCGTATTTGTA (site CGTGGAACTGA)	0
CCAGTATCATGGACCGGTTTTCCCGGTAATCCGTATTTGAC (site CGAGTATCTGT)	0

response.value for TAGCTAGCATGGACCGGTTTTCCCGGTAATCCGTATTTGAT (site TAGCTAGCTGT) (field: recombinant UMI read abundance (log10)) = 0

response.value for CGATCAGCATGGACCGGTTTTCCCGGTAATCCGTATTTGTT (site CGATCATCTAG) (field: recombinant UMI read abundance (log10)) = 0

response.value for ATCCAACCATGGACCGGTTTTCCCGGTAATCCGTATTTGAG (site ATCCAAACTCT) (field: recombinant UMI read abundance (log10)) = 0.0118

response.value for TGCTAGACATGGACCGGTTTTCCCGGTAATCCGTATTTGGT (site TGCTAGACTAC) (field: recombinant UMI read abundance (log10)) = 0.462
